Recorded EC50 for the following compounds
Molecular target: STING (Homo sapiens, UniProt Q86WV6, G230A/H232R/R293Q/R71H)
Sequence (Q86WV6 whole entry R71H/G230A/H232R/R293Q): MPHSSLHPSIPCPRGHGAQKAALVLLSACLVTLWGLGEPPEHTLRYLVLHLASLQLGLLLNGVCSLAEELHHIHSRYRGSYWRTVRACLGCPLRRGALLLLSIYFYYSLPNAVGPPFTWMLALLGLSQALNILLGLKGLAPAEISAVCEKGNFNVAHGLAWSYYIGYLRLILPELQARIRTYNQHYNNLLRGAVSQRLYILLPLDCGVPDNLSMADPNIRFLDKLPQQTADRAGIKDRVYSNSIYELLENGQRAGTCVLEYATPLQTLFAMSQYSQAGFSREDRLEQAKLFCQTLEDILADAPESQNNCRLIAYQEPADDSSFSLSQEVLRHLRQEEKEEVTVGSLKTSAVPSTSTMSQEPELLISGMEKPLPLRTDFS
Test: STING reporter assay in THP1-Dual KO-IFNAR2 cells (2′3′cGAMP stimulation, luciferase reporter)
Settings: 15 μM 2′3′cGAMP stimulation, 24 h, read-out: Pharmaron, THP1_IFNAR2 STING 24 h Luci Normalized: GeoMean EC50
Experimental: STING pathway activation by the compounds described herein was measured using THP1-Dual™ cells (KO-IFNAR2). […] 2 mL of solution A and 2 ml Solution B was mixed and incubated for 20 min at room temperature (RT). […] Luciferase reporter activity was then measured. EC50 values were calculated by using standard methods known in the art. […] Luciferase reporter activity was then measured. EC50 values were calculated by using standard methods known in the art.

Example entries and their recorded answers appear below.
COMPOUND: CC(C)(O)CC(=O)Nc1c[nH]c2ccc(OCCC3CCN(CC(F)(F)F)CC3)cc12 [Compound 118]
EC50: 200 to 1000 nM
//
COMPOUND: CC1(C(=O)Nc2c[nH]c3ccc(O[C@H]4C[C@H](c5ccc(C(F)(F)F)cc5)C4)cc23)CCC1 [Compound 564]
EC50: 40 to 200 nM
//
COMPOUND: CC(=O)Nc1c[nH]c2ccc(CCOc3cnc4ccc(OC(F)(F)F)cc4c3)cc12 [Compound 480]
EC50: 200 to 1000 nM
//
COMPOUND: COCCOCC(=O)Nc1c[nH]c2ccc(OCc3ccc(C(F)(F)F)cc3)cc12 [Compound 404]
EC50: 1000 to 5000 nM
//
COMPOUND: O=C(Nc1c[nH]c2ccc(OCCc3ccc(C(F)(F)F)cc3)cc12)C1COC1 [Compound 163]
EC50: 40 to 200 nM

// recorded EC50 for CC1(C)CC1C(=O)Nc1c[nH]c2ccc(O[C@H]3C[C@@H](c4ccc(C(F)(F)F)cc4)C3)cc12 (stereo partly shown) [Compound 359] : 40 to 200 nM

So for O=C(Nc1c[nH]c2ccc(OCCc3ccc(C(F)(F)F)cc3)cc12)C1CCOCC1 [Compound 239] , the logged EC50 turned out to be 40 to 200 nM

compound CC(=O)Nc1c[nH]c2ccc(CCOc3ccc(C)cc3)cc12 [Compound 228] , EC50 observed: 200 to 1000 nM

Value of EC50 reported for the compound CC(=O)Nc1c[nH]c2ncc(COCc3ccc(C(F)(F)F)cc3)cc12 [Compound 271] is 1000 to 5000 nM

The compound listed as CC1(C)CC(C(=O)Nc2c[nH]c3ccc(OCCc4ccc(C(F)(F)F)cc4)cc23)C1 [Compound 236] shows EC50 equal to 40 to 200 nM

Measured EC50 of CN1CC(C(=O)Nc2c[nH]c3ccc(OCCc4ccc(C(F)(F)F)cc4)cc23)C1 [Compound 311] : 1000 to 5000 nM

EC50 for COC(=O)C(Cc1ccc(C(F)(F)F)cc1)Cc1ccc2[nH]cc(NC(C)=O)c2c1 (stereo not shown) [Compound 527] is 1000 to 5000 nM

The compound listed as CC[C@@H](O)C(=O)Nc1c[nH]c2ccc(OCCc3ccc(C(F)(F)F)cc3)cc12 [Compound 431] has a reported EC50 of 40 to 200 nM

The compound listed as CO[C@H]1C[C@H](C(=O)Nc2c[nH]c3ccc(O[C@H]4C[C@H](c5ccc(C(F)(F)F)cc5)C4)cc23)C1 [Compound 242] has a reported EC50 of 40 to 200 nM

Cited source for all entries: patent US12503436B2
